This collection of values is drawn from patent US20160159924A1.

target-desc: T1, recombinant human sc-uPA (human, UniProt P00749 21-431)
T1 construct: 411 amino acid single-chain zymogen expressed in HEK293; the 20-residue signal peptide is not present in the mature protein; also called human single-chain uPA; pro-uPA
assay-comment: SPR, mAb immobilised
quantity-measured: pKd
Entry type: numeric. Quantity: pKd, the -log10 of concentration in molar units.

[
  {
    "binder": "rec0266-0000-0010-VH_G99Y (antibody, mouse IgG1, V domains shown) VH: DVKLVESGGGLVKPGGSLKLSCVASGFTFSSYTMSWVRQTPEKRLEWVATISGGGSHIYYADSVKGRFTISRDNAKNTLYLQMSSLKSEDTAIYYCTRDGRDYSWFAYWGQGTLVTVSA VL: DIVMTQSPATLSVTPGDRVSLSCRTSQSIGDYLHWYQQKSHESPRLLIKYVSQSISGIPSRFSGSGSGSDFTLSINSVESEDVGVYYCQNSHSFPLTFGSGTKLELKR",
    "quantity-measured": "pKd",
    "measured-value": 8.74
  },
  {
    "binder": "rec0266-0000-0010-VH_D95I (antibody, mouse IgG1, V domains shown) VH: DVKLVESGGGLVKPGGSLKLSCVASGFTFSSYTMSWVRQTPEKRLEWVATISGGGSHIYYADSVKGRFTISRDNAKNTLYLQMSSLKSEDTAIYYCTRIGRDGSWFAYWGQGTLVTVSA VL: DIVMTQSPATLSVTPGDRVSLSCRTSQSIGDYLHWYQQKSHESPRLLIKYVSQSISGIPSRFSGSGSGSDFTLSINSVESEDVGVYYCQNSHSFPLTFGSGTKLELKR",
    "quantity-measured": "pKd",
    "measured-value": 8.85
  },
  {
    "binder": "rec0266-0000-0010-VH_G96L (antibody, mouse IgG1, V domains shown) VH: DVKLVESGGGLVKPGGSLKLSCVASGFTFSSYTMSWVRQTPEKRLEWVATISGGGSHIYYADSVKGRFTISRDNAKNTLYLQMSSLKSEDTAIYYCTRDLRDGSWFAYWGQGTLVTVSA VL: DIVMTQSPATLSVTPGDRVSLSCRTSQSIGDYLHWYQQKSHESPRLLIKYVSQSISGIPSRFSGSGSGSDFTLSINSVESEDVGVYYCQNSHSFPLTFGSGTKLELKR",
    "quantity-measured": "pKd",
    "measured-value": 8.72
  },
  {
    "binder": "rec0266-0000-0010-VH_G99N (antibody, mouse IgG1, V domains shown) VH: DVKLVESGGGLVKPGGSLKLSCVASGFTFSSYTMSWVRQTPEKRLEWVATISGGGSHIYYADSVKGRFTISRDNAKNTLYLQMSSLKSEDTAIYYCTRDGRDNSWFAYWGQGTLVTVSA VL: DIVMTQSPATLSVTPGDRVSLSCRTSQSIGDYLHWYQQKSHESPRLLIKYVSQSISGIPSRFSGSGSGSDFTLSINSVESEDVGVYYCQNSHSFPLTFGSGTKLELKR",
    "quantity-measured": "pKd",
    "measured-value": 7.74
  },
  {
    "binder": "rec0266-0000-0010-VH_D98T (antibody, mouse IgG1, V domains shown) VH: DVKLVESGGGLVKPGGSLKLSCVASGFTFSSYTMSWVRQTPEKRLEWVATISGGGSHIYYADSVKGRFTISRDNAKNTLYLQMSSLKSEDTAIYYCTRDGRTGSWFAYWGQGTLVTVSA VL: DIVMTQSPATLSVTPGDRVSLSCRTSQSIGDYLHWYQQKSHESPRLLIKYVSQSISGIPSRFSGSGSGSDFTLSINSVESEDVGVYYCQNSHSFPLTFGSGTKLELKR",
    "quantity-measured": "pKd",
    "measured-value": 8.66
  }
]

Which pKd is listed for rec0266-0000-0010-VH_G96R (antibody, mouse IgG1, V domains shown) VH: DVKLVESGGGLVKPGGSLKLSCVASGFTFSSYTMSWVRQTPEKRLEWVATISGGGSHIYYADSVKGRFTISRDNAKNTLYLQMSSLKSEDTAIYYCTRDRRDGSWFAYWGQGTLVTVSA VL: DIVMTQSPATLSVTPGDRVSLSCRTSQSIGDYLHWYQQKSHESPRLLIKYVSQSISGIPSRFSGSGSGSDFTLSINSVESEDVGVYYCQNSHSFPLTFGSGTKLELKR ?
8.52

Which pKd is listed for rec0266-0000-0010-VH_D95V (antibody, mouse IgG1, V domains shown) VH: DVKLVESGGGLVKPGGSLKLSCVASGFTFSSYTMSWVRQTPEKRLEWVATISGGGSHIYYADSVKGRFTISRDNAKNTLYLQMSSLKSEDTAIYYCTRVGRDGSWFAYWGQGTLVTVSA VL: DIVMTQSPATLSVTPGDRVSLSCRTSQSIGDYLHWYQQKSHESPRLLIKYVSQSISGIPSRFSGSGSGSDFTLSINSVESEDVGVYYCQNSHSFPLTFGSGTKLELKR ?
9.10

Which pKd is listed for rec0266-0000-0010-VH_G96I (antibody, mouse IgG1, V domains shown) VH: DVKLVESGGGLVKPGGSLKLSCVASGFTFSSYTMSWVRQTPEKRLEWVATISGGGSHIYYADSVKGRFTISRDNAKNTLYLQMSSLKSEDTAIYYCTRDIRDGSWFAYWGQGTLVTVSA VL: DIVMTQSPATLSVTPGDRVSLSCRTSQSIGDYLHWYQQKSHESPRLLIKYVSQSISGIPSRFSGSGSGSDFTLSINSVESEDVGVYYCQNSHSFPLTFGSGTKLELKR ?
8.74

Which pKd is listed for rec0266-0000-0010-VH_G96H (antibody, mouse IgG1, V domains shown) VH: DVKLVESGGGLVKPGGSLKLSCVASGFTFSSYTMSWVRQTPEKRLEWVATISGGGSHIYYADSVKGRFTISRDNAKNTLYLQMSSLKSEDTAIYYCTRDHRDGSWFAYWGQGTLVTVSA VL: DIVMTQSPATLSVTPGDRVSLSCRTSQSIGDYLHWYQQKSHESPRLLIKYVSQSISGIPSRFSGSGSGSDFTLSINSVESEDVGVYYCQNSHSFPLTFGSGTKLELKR ?
8.24

Which pKd is listed for rec0266-0000-0010-VH_D95S (antibody, mouse IgG1, V domains shown) VH: DVKLVESGGGLVKPGGSLKLSCVASGFTFSSYTMSWVRQTPEKRLEWVATISGGGSHIYYADSVKGRFTISRDNAKNTLYLQMSSLKSEDTAIYYCTRSGRDGSWFAYWGQGTLVTVSA VL: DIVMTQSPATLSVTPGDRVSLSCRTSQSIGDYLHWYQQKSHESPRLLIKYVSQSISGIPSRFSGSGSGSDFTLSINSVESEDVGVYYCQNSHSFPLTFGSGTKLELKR ?
8.40
